- Tested on: SK-OV-3 ovarian
- assay.protocol: NCI tumour cell line growth inhibition, 48 h
For each entry below, report its TGI value.

Problem: I am curious: what TGI value has been reported for Cc1cc(N(CCC#N)CCC#N)ccc1/C(N=Nc1ccc(Cl)cc1)=N\NC(=O)c1cc(Cl)ccc1O ?
Solution: 97.9 µM

Problem: I am curious: what TGI value has been reported for CCOC(=O)C1(C(N)=O)C(=O)c2ccncc2C1=O (stereo not given) ?
Solution: > 100 µM

Problem: I am curious: what TGI value has been reported for Nc1c(C(=O)c2cccc(CCCN3CCOCC3)c2)cnn1-c1ccc(F)cc1 ?
Solution: > 25 µM

Problem: I am curious: what TGI value has been reported for COC(=O)C1=C(c2ccc(OC)c(OC)c2)OC(c2ccc(OC)c(OC)c2)C1 (stereo not given) ?
Solution: 96.7 µM

Problem: I am curious: what TGI value has been reported for N#Cc1c(-c2ccccc2)nc(SCC2CO2)nc1N1CCOCC1 (stereo not given) ?
Solution: 57.3 µM

---

- Tested on: M14 melanoma
- assay.protocol: NCI tumour cell line growth inhibition, 48 h
reported.metric: TGI

Problem: Lab request: please report TGI under test system M14 melanoma for COc1ccc(Oc2cccc(/C=C3/C(=O)Nc4ccccc43)c2)cc1
Solution: 24.3 µM

Problem: Lab request: please report TGI under test system M14 melanoma for CC(=O)[C@@H]1[C@@H](OC(=O)CCC(C)COC2OC(CO)C(O)C(O)C2O)C[C@H]2[C@@H]3CC=C4C[C@@H](OC5OC(CO)C(OC6OC(C)C(O)C(O)C6O)C(O)C5OC5OC(C)C(O)C(O)C5O)CC[C@]4(C)[C@H]3CC[C@]12C (stereo partly specified)
Solution: > 100 µM

Problem: Lab request: please report TGI under test system M14 melanoma for COc1cc(C2c3[nH]c4ccccc4c3C[C@H]3COC(=O)N23)cc(OC)c1OC (stereo partly specified)
Solution: 8.97 µM

Problem: Lab request: please report TGI under test system M14 melanoma for O=C(Nc1cccc(-n2ccc3c(NC(=O)c4ccccc4)nccc32)c1)c1ccc(N2CCOCC2)c(C(F)(F)F)c1
Solution: > 100 µM

Problem: Lab request: please report TGI under test system M14 melanoma for COc1cc2c(/C=C3/C(=O)N(C)c4ccccc43)c(Cl)[nH]c2cc1C
Solution: 11.5 µM

Problem: Lab request: please report TGI under test system M14 melanoma for CCNC(C)Cc1ccccc1 (stereo unspecified)
Solution: > 100 µM

Problem: Lab request: please report TGI under test system M14 melanoma for CC(=O)Nc1ccc(Nc2cc(=O)[nH]c(=O)[nH]2)cc1
Solution: > 100 µM

Problem: Lab request: please report TGI under test system M14 melanoma for N#CN=C(N)c1sc2nc3c(c(-c4ccc(Br)cc4)c2c1N)CCCC3
Solution: > 100 µM

Problem: Lab request: please report TGI under test system M14 melanoma for CC(NS(=O)(=O)c1ccc([N+](=O)[O-])cc1)C(=O)O (stereo unspecified)
Solution: > 100 µM

Problem: Lab request: please report TGI under test system M14 melanoma for CCOC(=O)Nc1cc2nnc(-c3ccccc3)nc2c(N)n1
Solution: > 100 µM

Problem: Lab request: please report TGI under test system M14 melanoma for CC(=N\N)/C(C)=N/N=C(C)/C(C)=N/N=C(C)/C(C)=N/N=C(C)/C(C)=N/N
Solution: > 100 µM

---

- Tested on: BT-549 breast
- assay.protocol: NCI tumour cell line growth inhibition, 48 h; in the data active means GI50 below about 0.43 µM; inactive means the rest
// allowed return values: label 1 = active, label 0 = inactive

Problem: How was Cc1nc(-c2cccc(Nc3nc(-c4ccc(Cl)cc4)cs3)c2)cs1 classified in this test?
Solution: label 0

Problem: How was Nc1ccc2c(c1)C(=O)C(=O)c1c-2nc2ccccn12 classified in this test?
Solution: label 0

Problem: How was Cc1ccc([N+](=O)[O-])cc1NC(=O)Nc1cccc(F)c1 classified in this test?
Solution: label 0

Problem: How was CC1(C)N=C(N)N=C(N)N1c1cccc(CCCCc2cccc(S(=O)(=O)F)c2)c1 classified in this test?
Solution: label 0

Problem: How was FC(F)(F)Oc1cccc(-c2cnc3ccc(-c4ccncc4)nn23)c1 classified in this test?
Solution: label 0

Problem: How was ClCCCN(CCCCl)c1ccc(C=Nc2cccc(Cl)c2)cc1 classified in this test?
Solution: label 0

Problem: How was C=CC[n+]1c(/C=C/C=C2\N(C)c3ccccc3C2(C)C)sc2ccc(OC)cc21 classified in this test?
Solution: label 1

Problem: How was FC(F)(F)c1nc(N2CCCC2)ncc1-c1nnnn1-c1ccc(Cl)cc1 classified in this test?
Solution: label 0

Problem: How was CCN(CC)CCOCC[C@H]1CC[C@H]2[C@@H]3[C@H](C)Cc4cc(OS(N)(=O)=O)ccc4[C@H]3CC[C@]12C classified in this test?
Solution: label 0

Problem: How was COc1cc(NS(C)(=O)=O)ccc1Nc1c2ccc([N+](=O)[O-])cc2nc2c(C)cccc12 classified in this test?
Solution: label 0

---

- Tested on: RXF 393 renal
- assay.protocol: NCI tumour cell line growth inhibition, 48 h; in the data active = GI50 below about 0.43 µM; inactive = the rest
// allowed return values: active, inactive

Problem: How was Fc1ccc2[nH]cc(-c3nc(-c4c[nH]c5ncccc45)cs3)c2c1 classified in this test?
Solution: inactive

Problem: How was Nc1c(C(=O)c2cccc(CCCN3CCOCC3)c2)cnn1-c1ccc(F)cc1 classified in this test?
Solution: inactive

Problem: How was COc1ccc(OC)c(/C=N/NC(=O)Cc2csc3nc(-c4ccc(Br)cc4)cn23)c1 classified in this test?
Solution: inactive

Problem: How was COc1ccc(-c2cc(-c3cc(Cl)ccc3Cl)nc3n[nH]c(N)c23)cc1 classified in this test?
Solution: inactive

Problem: How was O=C1c2ccccc2-c2c1c1ccccc1c(=O)n2CCCCNCCCn1c2c(c3ccccc3c1=O)C(=O)c1ccccc1-2 classified in this test?
Solution: active

Problem: How was CCN(CC)CCOCC[C@H]1CC[C@H]2[C@@H]3[C@H](C)Cc4cc(OS(N)(=O)=O)ccc4[C@H]3CC[C@]12C classified in this test?
Solution: inactive

Problem: How was NCCNc1c2c(c(NCCN)c3c(CO)c[nH]c13)C(=O)c1ccccc1C2=O classified in this test?
Solution: inactive

Problem: How was FC(F)(F)c1nc(N2CCCC2)ncc1-c1nnnn1-c1ccc(Cl)cc1 classified in this test?
Solution: inactive

Problem: How was COc1ccc2oc(=O)cc(C(c3ccc[nH]3)c3ccc[nH]3)c2c1 classified in this test?
Solution: active

---

- Tested on: MCF7 breast
- assay.protocol: NCI tumour cell line growth inhibition, 48 h
reported.metric: GI50

Problem: I am curious: what GI50 value has been reported for CC(=O)NCCc1c2c(c3nccc4c3c1Nc1ccccc1-4)OCS2 ?
Solution: 801 nM

Problem: I am curious: what GI50 value has been reported for COc1cc(NS(C)(=O)=O)ccc1Nc1c2ccc([N+](=O)[O-])cc2nc2c(C)cccc12 ?
Solution: 13.3 nM

Problem: I am curious: what GI50 value has been reported for CCN(CC)CCOCC[C@H]1CC[C@H]2[C@@H]3[C@H](C)Cc4cc(OS(N)(=O)=O)ccc4[C@H]3CC[C@]12C ?
Solution: 219 nM

Problem: I am curious: what GI50 value has been reported for COc1ccc(C2CC(c3cc(OC)c(OC)c(OC)c3)=NO2)cc1OCCCCOc1cc2c(cc1OC)C(=O)N1CCC[C@H]1C=N2 (some centres undefined) ?
Solution: 1750 nM

---

- Test system: SW-620 colon
- assay.protocol: NCI tumour cell line growth inhibition, 48 h; in the data active = GI50 below about 0.43 µM; inactive = the rest
// allowed return values: active, inactive

Problem: How was C/C(=N\NC(=O)c1sc(=S)n(C)c1N)c1cc2ccccc2o1 classified in this test?
Solution: inactive

Problem: How was C=CC[n+]1c(/C=C/C=C2\N(C)c3ccccc3C2(C)C)sc2ccc(OC)cc21 classified in this test?
Solution: active

Problem: How was CCS(=O)(=O)N1CCC(C(C)n2c(C)c(C(=O)NCc3c(OC)cc(C)[nH]c3=O)c3ccccc32)CC1 (stereo not given) classified in this test?
Solution: inactive

Problem: How was FC(F)(F)c1nc(N2CCCC2)ncc1-c1nnnn1-c1ccc(Cl)cc1 classified in this test?
Solution: inactive

Problem: How was N#Cc1c(-c2ccccc2)nc(SCC2CO2)nc1N1CCOCC1 (stereo not given) classified in this test?
Solution: inactive

Problem: How was CC1(C)N=C(N)N=C(N)N1c1cccc(CCCCc2cccc(S(=O)(=O)F)c2)c1 classified in this test?
Solution: active

Problem: How was CC1(C#N)N(C(=O)c2ccccc2)c2ccccc2N1C(=O)c1ccccc1 classified in this test?
Solution: inactive

Problem: How was COc1ccc(OC)c(/C=N/NC(=O)Cc2csc3nc(-c4ccc(Br)cc4)cn23)c1 classified in this test?
Solution: inactive

Problem: How was Nc1ccc2c(c1)C(=O)C(=O)c1c-2nc2ccccn12 classified in this test?
Solution: inactive

Problem: How was NCCNc1c2c(c(NCCN)c3c(CO)c[nH]c13)C(=O)c1ccccc1C2=O classified in this test?
Solution: inactive
